Tested on: EKVX
EXPERIMENT NOTES: Anticancer activity against human EKVX cells assessed as cell growth promotion at 10^-5 M after 48 hrs by SRB assay relative to control
Assay type: functional
READOUT TYPE: Activity (%)
Output spec: scalar in %, unitless text.

According to the records, this compound O=C(Nc1ccccc1C(=O)Nc1ccc(/C=C/c2ccc(Cl)cc2)cc1)c1ccccc1 displays Activity of 86.68

// recorded Activity for O=C(Nc1ccccc1C(=O)Nc1ccc(/C=C/c2ccc(Cl)cc2)cc1)c1ccco1 : 80.41

Measured Activity, O=c1c2ccccc2nc(-c2ccco2)n1/N=C/c1ccccc1Cl : 64.12

# Activity (compound: Oc1ccccc1/C=C/c1nc2ccccc2nc1SCc1nc2ccccc2[nH]1 ) is 60.4

// sample COc1cc(/C=C/c2ccc(NC(=O)c3ccccc3NC(=O)c3ccccc3)cc2)ccc1O , its Activity was 100

Measured Activity, Brc1cccc(/C=C/c2nc3ccccc3nc2SCc2nc3ccccc3[nH]2)c1 : 79.01

The compound listed as O=C(Nc1ccccc1C(=O)Nc1ccc(/C=C/C=C/c2ccccc2)cc1)c1ccccc1 has a reported Activity of 87.7

The compound listed as Oc1ccc(/C=C/c2nc3ccccc3nc2SCc2nc3ccccc3[nH]2)cc1 shows Activity equal to 92.68

The compound O=C(Nc1ccccc1C(=O)Nc1ccc(/C=C/c2ccc(O)cc2)cc1)c1ccccc1 showed Activity equal to 85.24

Form: compound = N#Cc1ccc(/C=C/c2nc3ccccc3nc2SCc2nc3ccccc3[nH]2)cc1 ; Activity = 99.04

Sample COc1ccc(OC)c(/C=C/c2nc3ccccc3nc2SCc2nc3ccccc3[nH]2)c1 ; Activity observed: 81.9

Entry NS(=O)(=O)c1ccc(NC(=O)c2ccccc2NC(=O)c2ccco2)cc1 , Activity reported as 97.23

CN(C)c1ccc(/C=C/c2nc3ccccc3nc2SCc2nc3ccccc3[nH]2)cc1 yielded Activity of 92.96

Reported Activity ( C(=C\c1nc2ccccc2nc1SCc1nc2ccccc2[nH]1)/c1ccccc1 ) = 22.23

The recorded Activity for entry O=c1c2ccccc2nc(-c2ccco2)n1O equals 109.13

The compound identified as O=C(O)c1ccc(-n2c(-c3ccco3)nc3ccccc3c2=O)cc1 registered its Activity at 98.39

Activity measured on N#Cc1ccc(/C=C/c2ccc(NC(=O)c3ccccc3NC(=O)c3ccco3)cc2)cc1 = 88.81

* * *

System: SK-MEL-28
EXPERIMENT NOTES: Anticancer activity against human SK-MEL-28 cells assessed as cell growth promotion at 10^-5 M after 48 hrs by SRB assay relative to control
Format: functional
Provide the reported Activity of each item.
Express it in %; write the number only.

Lab note: O=C(Nc1ccccc1C(=O)Nc1ccc(/C=C/c2ccc(Cl)cc2)cc1)c1ccco1 gave Activity of 111

The measured Activity associated with Oc1ccccc1/C=C/c1nc2ccccc2nc1SCc1nc2ccccc2[nH]1 reads 95.95

Given item O=C(Nc1ccccc1C(=O)Nc1ccc(/C=C/c2ccc(Cl)cc2)cc1)c1ccccc1 , the value recorded as its Activity is 101

Per the records, this molecule ( O=c1c2ccccc2nc(-c2ccco2)n1O ) has Activity equal to 109.58

# Activity of C(=C\c1nc2ccccc2nc1SCc1nc2ccccc2[nH]1)/c1ccccc1 = 94.52

# Activity of O=C(Nc1ccccc1C(=O)Nc1ccc(/C=C/C=C/c2ccccc2)cc1)c1ccccc1 = 107

Please fill in: Activity reported for Oc1ccc(/C=C/c2nc3ccccc3nc2SCc2nc3ccccc3[nH]2)cc1 = 102

Reported Activity ( O=C(Nc1ccccc1C(=O)Nc1ccc(/C=C/c2ccc(O)cc2)cc1)c1ccccc1 ) = 103

Short answer for N#Cc1ccc(/C=C/c2ccc(NC(=O)c3ccccc3NC(=O)c3ccco3)cc2)cc1 : Activity was 113

// NS(=O)(=O)c1ccc(NC(=O)c2ccccc2NC(=O)c2ccco2)cc1 : Activity value = 107.1

The measured Activity associated with Brc1cccc(/C=C/c2nc3ccccc3nc2SCc2nc3ccccc3[nH]2)c1 reads 86.57

GET /value?item= N#Cc1ccc(/C=C/c2nc3ccccc3nc2SCc2nc3ccccc3[nH]2)cc1 &field=Activity returns 88.08

The value of Activity measured for the molecule COc1cc(/C=C/c2ccc(NC(=O)c3ccccc3NC(=O)c3ccccc3)cc2)ccc1O turned out to be 115

Reported Activity ( COc1ccc(OC)c(/C=C/c2nc3ccccc3nc2SCc2nc3ccccc3[nH]2)c1 ) = 118

Consider O=c1c2ccccc2nc(-c2ccco2)n1/N=C/c1ccccc1Cl . Its measured Activity is 38.98

Looking up O=C(O)c1ccc(-n2c(-c3ccco3)nc3ccccc3c2=O)cc1 , I see its Activity listed as 115.08

Per the record, CN(C)c1ccc(/C=C/c2nc3ccccc3nc2SCc2nc3ccccc3[nH]2)cc1 has Activity of 124

Each recorded value in this set is attributed to ChEMBL document CHEMBL1781959.
